# target.of.assay: Alpha-2C adrenergic receptor (Homo sapiens)
# assay.info: modulators of alpha2C/GIRK thallium flux, primary screen, cell-based, HEK293 alpha2C/GIRK1/2 (AID 624);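 note: slope of fluorescence ratio to pre-addition baseline per second over 15 to 24 s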
# protocol.conditions: thallium flux BTC fluorescence, at 10 µM, actives lie on both sides
Param threshold (0.006) applies to slope; output 1 when value >= threshold, 0 when value < threshold.

{"columns": ["compound", "group"],
 "data": [
  ["CCOc1ccc2c(C)nc(NC3=NC(C)(C)C=C(C)N3)nc2c1", 1],
  ["N#CC1=C(SCc2ccccc2)NC2=C(C(=O)CCC2)C1c1ccc2c(c1)OCO2 (stereo unspecified)", 1],
  ["COC(=O)c1ccc(C2C(C(=O)c3cc4ccccc4o3)=C(O)C(=O)N2CCCN(C)C)cc1 (stereo unspecified)", 1],
  ["S=c1[nH]nc(-c2ccco2)n1Cc1ccccc1", 0],
  ["Cc1cc(C)n2c3c(c(C#N)c2n1)CC(C)(C)OC3", 0]
]}

Consider now this further compound.
// query Record COc1cc(-c2nn3c(-c4ccccn4)nnc3s2)cc(OC)c1OC ; criterion: slope no lower than 0.006. Met?
// result 1

====

# target.of.assay: Voltage-gated potassium channel subunit beta-2 (Rattus norvegicus)
# assay.info: KvBeta enzyme negative modulators, primary screen, biochemical, NADPH fluorescence (AID 622);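 note: slope of raw intensity against log time taken from 70 to 1610 s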
# protocol.conditions: recombinant KvBeta, 4-cyanobenzaldehyde reduction, at 10 µM, active compounds read high
The source made the active and inactive calls.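 Rule for the calls: active = fluorescence slope higher than the sample average by over 3 SD (cut at about -0.22 in these data, passing the limit was not always enough); inactive = the rest.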
parameter: fluorescence slope

{"columns": ["compound", "fluorescence slope"],
 "data": [
  ["CCCCc1c(C)nn(-c2nnc3c4ccccc4n(C)c3n2)c1C", "-0.48 (inactive)"],
  ["COc1ccccc1N1CCN(CCCCOc2ccc(F)cc2)CC1", "-0.52 (inactive)"],
  ["Cc1cnc(NC(=O)C2=C(O)c3ccccc3S(=O)(=O)N2C)s1", "-0.427 (inactive)"],
  ["CCCCCCCC(=O)OCC(=O)[C@@]1(O)CC[C@H]2[C@@H]3CCC4=CC(=O)CC[C@]4(C)[C@H]3[C@@H](O)C[C@@]21C", "-0.503 (inactive)"],
  ["CNCCCN1c2ccccc2CCc2ccccc21", "-0.533 (inactive)"]
]}

// query So what's the measured fluorescence slope for this one? COC(=O)c1cc(Br)c(=O)n(CCc2ccc(F)cc2)c1
// result -0.324 (inactive)

// query Next entry: CCN(CC)CCN1C(=O)C(=O)/C(=C(/O)c2ccc(F)cc2)C1c1ccncc1 (stereo unspecified)
// result -0.542 (inactive)

// query Next entry: CNCCCC1c2ccccc2C=Cc2ccccc21
// result -0.496 (inactive)

// query Next entry: OCC(O)CN1CCN(c2ccccc2)CC1 (stereo unspecified)
// result -0.455 (inactive)

// query Next entry: CCN1CCc2c(C#N)c(N3CCOCC3)nc(NCCO)c2C1
// result -0.456 (inactive)

// query Next entry: Cc1ccc(-n2nc3cc(Cl)c(NC(=O)c4ccco4)cc3n2)cc1
// result -0.459 (inactive)

====

Collected inhibition values appear next to each entry.
# assay.info: inhibitors of E-selectin induction by TNFa, primary screen, imaging, HUVEC, immunofluorescence, MLSMR starter and 10KST1 sets (AID 487);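 note: signal is fraction of cell area covered by stained E-selectin grains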
# protocol.conditions: HUVEC TNFalpha-induced E-selectin immunofluorescence imaging, at 2 µM; active compounds read high
Calls of active or inactive are those of the source.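 The calls were made as follows: active = visually confirmed hit in the image check and inhibition above 20%; inconclusive = visually confirmed hit but inhibition not above 20%; inactive = no visual hit in the image check.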

{"columns": ["compound", "inhibition"],
 "data": [
  ["Nc1nnc(Cc2ccc(Cl)c(Cl)c2)s1", "33.3% (inactive)"],
  ["COC(=O)Nc1nc2ccc(Sc3ccccc3)cc2[nH]1", "-3.1% (inactive)"],
  ["CC(=O)Oc1cccc2c1C(=O)c1c(OC(C)=O)cc(C(=O)O)cc1C2=O", "-52.7% (inactive)"],
  ["CCN1CCc2c(C#N)c(N3CCCCC3)nc(NCc3ccccc3)c2C1", "-51.6% (inactive)"],
  ["CCOC(=O)C(C#N)C(Cc1ccccc1)c1ccco1 (stereo unspecified)", "-70.2% (inactive)"]
]}

Okay, next one:
// query So what's the measured inhibition for this one? CCOc1nc(SCCOc2ccccc2)nc(N(C)C)n1
// result -68.5% (inactive)

====

# target.of.assay: Voltage-gated potassium channel subunit beta-2 (Rattus norvegicus)
# assay.info: KvBeta positive modulators, primary screen, biochemical, NADPH fluorescence (AID 623);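 note: fluorescence intensity change per second fitted from 20 to 320 s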
# protocol.conditions: Recombinant KvBeta, NADPH fluorescence decrease slope, 10 min; at 10 µM; active compounds read low
parameter: NADPH fluorescence slope
# output: bare number, no unit

// query What is its NADPH fluorescence slope for Voltage-gated potassium channel subunit beta-2 (Rattus norvegicus)? Entry: CN1C2C=C3C(C#N)=C(N)C(C#N)(C#N)[C@@H](c4ccc(Cl)cc4)[C@@H]3C1CC2 (stereo not given in full)
// result -1.7e-05

// query Next entry: Cc1cccc(N(Cc2cc3ccccc3[nH]c2=O)C(=O)c2ccco2)c1C
// result -0.000168

// query Next entry: C=CCOc1nc2c(c(=O)n(Cc3ccc(Cl)c(Cl)c3)c(=O)n2C)n1C
// result -0.000116

// query Next entry: Cc1nc(NS(=O)(=O)c2ccccc2)sc1NC(=O)OC(C)C
// result 1e-05

// query Next entry: COc1ccccc1Nc1ncc(-c2cccs2)s1
// result -5.4e-05

====

# target.of.assay: Voltage-gated potassium channel subunit beta-2 (Rattus norvegicus) (UniProt P62483)
# Sequence (P62483 whole entry, looked up): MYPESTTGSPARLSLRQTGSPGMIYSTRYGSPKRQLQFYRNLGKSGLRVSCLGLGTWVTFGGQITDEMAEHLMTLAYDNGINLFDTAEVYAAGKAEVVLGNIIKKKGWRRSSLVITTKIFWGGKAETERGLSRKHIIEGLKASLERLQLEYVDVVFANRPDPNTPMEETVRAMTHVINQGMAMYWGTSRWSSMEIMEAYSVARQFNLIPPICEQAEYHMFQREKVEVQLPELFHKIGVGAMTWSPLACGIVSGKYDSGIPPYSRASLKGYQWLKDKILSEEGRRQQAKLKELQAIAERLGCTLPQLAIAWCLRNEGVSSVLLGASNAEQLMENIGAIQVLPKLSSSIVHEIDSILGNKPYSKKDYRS
# assay.info: KvBeta enzyme negative modulators, primary screen, biochemical, NADPH fluorescence (AID 622);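 note: slope of raw intensity against log time taken from 70 to 1610 s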
# protocol.conditions: recombinant KvBeta, 4-cyanobenzaldehyde reduction, at 10 µM, active compounds read high
Calls of active or inactive are those of the source.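 How the source made its calls: active means fluorescence slope higher than the sample average by over 3 SD (cut at about -0.22 in these data, passing the limit was not always enough); inactive means the rest.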
Collected fluorescence slope values appear next to each entry.

In the examples that follow, each entry is paired with its recorded fluorescence slope.
{"columns": ["molecule", "assay.result"],
 "data": [
  ["COc1ccc(Cn2c(O)cc(=O)[nH]c2=O)cc1", "-0.386 (inactive)"],
  ["CCN(CC)c1ccc2c(C)c(-c3ccc(N)cc3)c(=O)oc2c1", "-0.133 (active)"],
  ["CCCC(=O)N1CCN(c2nc(CC(C)C)c3c(c2C#N)CCC3)CC1", "-0.5 (inactive)"],
  ["COc1cccc(/C(O)=C2\\C(=O)C(=O)N(c3ccccn3)C2c2ccccc2OC)c1 (stereo unspecified)", "-0.54 (inactive)"],
  ["Cc1ccc(-c2nnc(-c3cccc(Br)c3)o2)cc1", "-0.487 (inactive)"],
  ["CC1(C)Cc2c(c(N3CCOCC3)nc3sc(C#N)c(N)c23)CS1", "-0.0293 (active)"]
]}

Okay, next one:
// query So what's the measured fluorescence slope for this one? CCOC(=O)C1CCN(c2nc3ccccc3nc2C(C#N)C(=O)OCCOC)CC1 (stereo unspecified)
// result -0.529 (inactive)

====

# target.of.assay: Alpha-2C adrenergic receptor (Homo sapiens)
# assay.info: modulators of alpha2C/GIRK thallium flux, primary screen, cell-based, HEK293 alpha2C/GIRK1/2 (AID 624);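 note: slope of fluorescence ratio to pre-addition baseline per second over 15 to 24 s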
# protocol.conditions: thallium flux BTC fluorescence, at 10 µM, actives lie on both sides
Hi! Just check whether slope is below 0.006. Below gives label 1, equal or above gives label 0.

{"columns": ["molecule", "target.of.assay", "group"],
 "data": [
  ["COc1ccc(C(=O)N/C(N)=N/c2nc3ccccc3o2)cc1", "Alpha-2C adrenergic receptor (Homo sapiens)", "label 1"],
  ["CCCc1[nH]n(-c2nc3ccccc3s2)c(=O)c1C=NCCN1CCOCC1", "Alpha-2C adrenergic receptor (Homo sapiens)", "label 1"],
  ["CCN(CC)CCCn1c(C)cc2c(c1=O)C(c1ccc(OC)c(OC)c1OC)C(C#N)=C(N)O2 (stereo unspecified)", "Alpha-2C adrenergic receptor (Homo sapiens)", "label 0"],
  ["CN(C(=O)C(Cl)Cl)c1ccc(OC(=O)c2ccco2)cc1", "Alpha-2C adrenergic receptor (Homo sapiens)", "label 1"]
]}

// query Does CCCCN1C[C@H](O)[C@@H](O)[C@H](O)[C@H]1CO have slope strictly under 0.006?
// result label 1

// query Next entry: CCCCC1CC1C(=O)Nc1ccc(OC)c(OC)c1 (stereo unspecified)
// result label 0

// query Next entry: N=c1ncn(CC(O)CN2CCOCC2)c2nc(N3CCOCC3)[nH]c12 (stereo unspecified)
// result label 0

// query Next entry: COc1ccc(Nc2cc(C)nc3ccccc23)cc1
// result label 1

// query Next entry: Cn1c(=O)c2c(nc(SCCN3CCCCC3)n2Cc2ccc(Cl)cc2)n(C)c1=O
// result label 1

// query Next entry: Nc1nnnn1CC(=O)OCc1cccc(Br)c1
// result label 1

// query Next entry: CCCCCc1ccc(-c2ccc(=O)[nH]n2)cc1
// result label 1

====

# target.of.assay: Voltage-gated potassium channel subunit beta-2 (Rattus norvegicus) (UniProt P62483)
# assay.info: KvBeta positive modulators, primary screen, biochemical, NADPH fluorescence (AID 623);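 note: fluorescence intensity change per second fitted from 20 to 320 s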
# protocol.conditions: Recombinant KvBeta, NADPH fluorescence decrease slope, 10 min; at 10 µM; active compounds read low
parameter: NADPH fluorescence slope
# output: bare number, no unit

In the examples that follow, each entry is paired with its recorded NADPH fluorescence slope.
{"columns": ["compound", "NADPH fluorescence slope"],
 "data": [
  ["OCCN1CCN(CCCN2c3ccccc3Sc3ccc(Cl)cc32)CC1", "-5.7e-05"],
  ["C=CCSc1nnc2n(-c3ccccc3OC)c(=O)c3c4c(sc3n12)CCC4", "-1.1e-06"],
  ["C/C(CC1(O)C(=O)N(Cc2ccccc2)c2ccccc21)=N\\O (centres undefined)", -0.000206],
  ["COc1ccc(-n2c(SCC(N)=O)nc3sc4c(c3c2=O)CCN(C)C4)cc1", "-1.8e-06"],
  ["CCN(CC)CCCN1C(=O)C(=O)/C(=C(/O)c2ccccc2)C1c1ccccn1 (centres undefined)", "-3.7e-05"]
]}

// query So what's the measured NADPH fluorescence slope for this one? CCCCOC(=O)Nc1ccc(S(=O)(=O)Nc2nc(C)cc(C)n2)cc1
// result -1.7e-05

// query Next entry: COc1ccccc1N(O)C1CC(=O)N(c2ccc(F)cc2)C1=O (centres undefined)
// result -0.000168

// query Next entry: O=C(Nc1ccc2c(c1)OCO2)c1cncc(Br)c1
// result -3.7e-05

// query Next entry: CN1C(=O)NC(NC(=O)c2ccco2)(C(F)(F)F)C1=O (centres undefined)
// result -6e-05

// query Next entry: COc1ccc(C2/C(=C(/O)c3ccccc3)C(=O)C(=O)N2c2ncccn2)cc1OC (centres undefined)
// result -3.2e-05
